// values below are reported log10 Ki
target: Carbonic anhydrase 2 (Homo sapiens)
observable: log10 Ki (log10 of the value in nM)

                               smiles_input  observable  reported
0   NS(=O)(=O)c1ccc(CCNc2nc(Cl)nc(Cl)n2)cc1    log10 Ki      1.32
1    COc1nc(NCc2ccc(S(N)(=O)=O)cc2)nc(OC)n1    log10 Ki      2.05
2    CNc1nc(NC)nc(NCc2ccc(S(N)(=O)=O)cc2)n1    log10 Ki      1.18
3  NS(=O)(=O)c1ccc(CCNc2nc(=O)[nH]c(=O)[nH]2)cc1    log10 Ki      1.99
4  CCOc1nc(NCc2ccc(S(N)(=O)=O)cc2)nc(OCC)n1    log10 Ki      1.92
5   CNc1nc(NC)nc(NCCc2ccc(S(N)(=O)=O)cc2)n1    log10 Ki      1.43
6  NS(=O)(=O)c1ccc(Nc2nc(=O)[nH]c(=O)[nH]2)cc1    log10 Ki      2.44
7  NS(=O)(=O)c1ccc(CNc2nc(=O)[nH]c(=O)[nH]2)cc1    log10 Ki      2.11

====

Ki, Carbonic anhydrase 1 (Homo sapiens): measured values
observable: Ki

In [3]: df
Out[3]:
                               smiles_input  reported
0  NS(=O)(=O)c1ccc(Nc2nc(=O)[nH]c(=O)[nH]2)cc1    103 nM
1  CCOc1nc(NCCc2ccc(S(N)(=O)=O)cc2)nc(OCC)n1     82 nM
2  NS(=O)(=O)c1ccc(CCNc2nc(=O)[nH]c(=O)[nH]2)cc1     96 nM
3   CNc1nc(NC)nc(NCCc2ccc(S(N)(=O)=O)cc2)n1     88 nM
4     CNc1nc(NC)nc(Nc2ccc(S(N)(=O)=O)cc2)n1     83 nM
5  NS(=O)(=O)c1ccc(CNc2nc(=O)[nH]c(=O)[nH]2)cc1     94 nM
